# growth inhibition per entry
assay_notes: NCI Yeast Anticancer Drug Screen. Data for the rad50 strain (AID 155);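 further: 0% = growth of vehicle-only cultures of the same strain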
measurement_setup: S. cerevisiae rad50 strain growth inhibition; at 50.0 µM; active compounds read high
Procedure: Growth inhibition of yeast strains with defined genetic alterations is measured as a screen for potential anti-cancer activity. Selected strains with alterations in DNA damage repair or cell cycle control were exposed to compounds and growth inhibition was measured relative to vehicle treated controls. The strain used in this assay is rad50
The panel holds about 79,000 compounds, 15% with a hit somewhere; the sample as a whole holds those more often. The source made the active and inactive calls. No stated cut-off is given here; in the data, active means growth inhibition above about 70%; inactive means the rest.

Known growth inhibition results, listed for orientation:
{"compound": "CC12CCC(C(S(=O)(=O)O)C1=O)C2(C)C (stereo not given) (tested in a mixture with another compound)", "growth inhibition": "-1.2% (inactive)"}
{"compound": "CCN(CC)C(N)=Nc1cc2ccccc2c2ccccc12", "growth inhibition": "-16.5% (inactive)"}

Quick one: growth inhibition for `O=c1oc2ccc(Br)cc2cc1-n1nnc2ccccc21` ? -0.45% (inactive)

Would you kindly repeat that for `c1ccc(-c2nc3ccccc3nc2SCc2cccnc2)cc1` ? 14.4% (inactive)

Try O=C(O)CCC(=O)C(Cc1ccccc1)NC(=O)c1ccccc1 (stereo not given) next. -14.4% (inactive)

Let us now turn to `COc1cc(/C(C#N)=C/c2ccccn2)c([N+](=O)[O-])cc1OC` -7.9% (inactive)

Cool, now `C=CCNC(=S)Nc1cccc(OC(=O)NC2CCCCC2)c1` -0.15% (inactive)

----------
assay_notes: NCI Yeast Anticancer Drug Screen. Data for the sgs1 mgt1 strain (AID 161);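 further: 0% = growth of cultures given vehicle only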
measurement_setup: S. cerevisiae sgs1 mgt1 strain, at 50.0 µM
This is part of a sample that, as a whole, favours compounds with a hit. Of some 79,000 tested, about 15% had one in any assay. The source made the active and inactive calls. Rule as the data show it: active = growth inhibition above about 70%; inactive = the rest.
Classes to choose from: t = active, f = inactive

{"molecule": "O=C(Cc1nccc2c1[nH]c1ccccc12)OC1C#CCSCC#C/C=C\\1 (configuration not stated)", "class_assignment": "f"}

# outcome recorded in this test, key = NC(=O)C1CC(I)C2CC1C(=O)O2 (configuration not stated) f

Now this one: `CCNC1=C(C(=O)OCC)C(=O)CO1` f

Subsequent entry: CCOC(=O)C1(C(F)(F)F)N=C(CC)OC(N2CCOCC2)=N1 (configuration not stated) f

----------
assay_notes: NCI Yeast Anticancer Drug Screen. Data for the mlh1 rad18 strain (AID 175)
measurement_setup: S. cerevisiae mlh1 rad18 strain growth inhibition; at 50.0 µM; active compounds read high
This is part of a sample that, as a whole, favours compounds with a hit. Of some 79,000 tested, about 15% had one in any assay.
Note to self: values exactly at -10% are Criterion met. So growth inhibition at or above -10% is Criterion met, below is Criterion not met.

Example entries begin here.
{"compound": "CCC(C)(O)C(C)(O)CC (stereo not given)", "class_assignment": "Criterion met"}
{"compound": "O=C(NCCCCCCNC(=O)OCOC(=O)NCCCCCCNC(=O)Nc1ccc(SCCO)cc1)Nc1ccc(SCCO)cc1", "class_assignment": "Criterion not met"}
{"compound": "CC(C(O)c1ccccn1)[N+](=O)[O-] (stereo not given)", "class_assignment": "Criterion met"}
{"compound": "c1ccc(B2OC(c3ccccc3)=C(c3ccccc3)O2)cc1", "class_assignment": "Criterion met"}
{"compound": "Cn1nnnc1/C(=C/c1ccccc1)C(=O)O", "class_assignment": "Criterion met"}

Is reported growth inhibition greater than or equal to -10% here: `N#CC(CCc1ccccc1)(c1ccccc1)c1ccccc1` Criterion not met

For CCCCN(C)CC(C)O (stereo not given) then? Criterion not met

Next up: `O=C(O)Cc1c(-c2ccc([N+](=O)[O-])cc2)c(=O)oc2cc(O)ccc12` Criterion met

Now the compound CCCCSCC(NC(=O)/C=C/c1c(C)[nH]c(=O)[nH]c1=O)C(=O)OC (stereo not given) Criterion met

And what about the compound `O=S(=O)(Oc1cccc2ccccc12)c1ccc(Br)cc1` ? Criterion not met

----------
assay_notes: NCI Yeast Anticancer Drug Screen. Data for the bub3 strain (AID 167)
measurement_setup: S. cerevisiae bub3 mutant strain, at 50.0 µM, active compounds read high
This is part of a sample that, as a whole, favours compounds with a hit. Of some 79,000 tested, about 15% had one in any assay.
assay_metric: growth inhibition (%)
Please give a number only; it is taken to be in %.

Worked cases, answers included:
{"molecule": "CN1CCN(C)c2nc3ccccc3nc21", "growth inhibition, %": -6.85}
{"molecule": "Cc1[nH]c2ccccc2c1C(CC(=O)O)c1ccccc1 (stereo unspecified)", "growth inhibition, %": -4.55}
{"molecule": "CN(C)CCCN1c2ccccc2Sc2ccc3ccccc3c21", "growth inhibition, %": 8.95}
{"molecule": "CCOC(=O)c1cc2c(C(=O)c3ccc([N+](=O)[O-])cc3)c(C(C)=O)ccc2[nH]1", "growth inhibition, %": 19}
{"molecule": "FC(F)(c1nnnn1Cc1ccccc1)C(F)(F)C(F)(F)C(F)(F)C(F)(F)C(F)(F)C(F)(F)C(F)(F)c1nnnn1Cc1ccccc1", "growth inhibition, %": 7.95}

// growth inhibition lookup, key: `C=CCOc1ccc(C2CCCCC2)cc1` -2.75

Query `CC(C)CCC[C@@H](C)[C@H]1CC[C@H]2[C@@H]3CC=C4C[C@@H](Cl)CC[C@]4(C)[C@H]3CC[C@]12C` next -8.9

Note, next up: O=C(NC1CC12c1ccccc1-c1ccccc12)Oc1ccc2ccccc2c1 (stereo unspecified) 55.2

Also need `Cc1ccc(C)c(NC(=O)Oc2ccc(C(=O)OCc3ccccc3)cc2)c1` , thanks. 96.5

Follow-up entry: `O=C(O)Cn1cnc2c(=O)[nH]c(Nc3ccccc3)nc21` 15.5

Ok, now `COc1ccc(NC(=O)CCc2cc(-c3ccc(O)c(OC)c3)nc(NC#N)n2)cc1` 27.6

----------
Below, each entry is listed alongside its reported growth inhibition.
assay_notes: NCI Yeast Anticancer Drug Screen. Data for the mec2-1 strain (AID 157)
measurement_setup: S. cerevisiae mec2-1 strain, at 50.0 µM, active compounds read high
About 79,000 compounds went through this panel and 15% of them were active in at least one assay; those are over-represented in the sample as a whole.
Quick reminder: number only, in %, skip the unit.

Completed entries (count: 4):
{"compound": "Nc1ccc2c(c1)C1C(C3C2C2(Cl)C(Cl)=C(Cl)C3(Cl)C2(Cl)Cl)C2(Cl)C(Cl)=C(Cl)C1(Cl)C2(Cl)Cl (configuration not stated)", "result_value": 24.9}
{"compound": "O=C(O)CC(SSCc1ccccc1)C(=O)O (configuration not stated)", "result_value": 16.6}
{"compound": "N#C/C(=C/c1ccc[nH]1)C(=O)O", "result_value": -10.2}
{"compound": "O=c1[nH]c(=O)c2ncn(-c3ccc([N+](=O)[O-])cn3)c2[nH]1", "result_value": 7.3}

Return reported growth inhibition; argument: `CNC(=O)Nc1ccnc(=O)[nH]1` -1.85

What do we get for COC(=O)NN1C(C)=C(C(=O)OC)C2(C#N)C(C(=O)OC)=C(C)N(NC(=O)OC)C12N (configuration not stated) ? -26.6

Consider next the compound `O=C1C(=C(c2ccc([N+](=O)[O-])cc2)N2CCOCC2)C(=O)c2ccccc21` in the same way. 0.4

Please do the same for `S=C(S)NCNC(=S)S.[Zn+2]` as well. 12.2

Thanks! And C=C(Cl)C(=C)CCC(Cl)C(C)(C)Cl (configuration not stated) ? 9.4

----------
Recorded growth inhibition values for a group of compounds are listed next.
assay_notes: NCI Yeast Anticancer Drug Screen. Data for the cln2 rad14 strain (AID 165);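 further: 0% = growth equal to vehicle treated cultures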
measurement_setup: S. cerevisiae cln2 rad14 strain, at 50.0 µM, active compounds read high
About 79,000 compounds went through this panel and 15% of them were active in at least one assay; those are over-represented in the sample as a whole.
All answers are understood in %, so give the number only.

Would you please look over these solved cases?
{"smiles_record": "CCCCN(CC)C(=O)C(=O)Cc1nc2ccc(C(=O)c3ccccc3)cc2[nH]c1=O", "growth inhibition (%)": 17}
{"smiles_record": "CC1CCN(C(=O)C(c2ccccc2)c2ccccc2)CC1", "growth inhibition (%)": -18.8}
{"smiles_record": "O=C(O)c1cc(-c2ccccc2)nc2c(Cl)cc(Cl)cc12", "growth inhibition (%)": 9.8}
{"smiles_record": "CC1=CC(=C2C=CC(=O)C=C2)C=C(C)N1C", "growth inhibition (%)": -4.5}

Requested read-out: growth inhibition. Entry: `C=CCOC(=O)Nc1ccc(C)c(NC(=O)OCC=C)c1` -25.5

Next compound: `Cc1ccc(S(=O)(=O)Oc2ccc(-c3ccc([N+](=O)[O-])cc3)cc2)cc1` -6.9

Another: `COc1cc(Cl)ccc1NC(=O)COc1ccc(Cl)cc1` -3.6

----------
assay_notes: NCI Yeast Anticancer Drug Screen. Data for the bub3 strain (AID 167)
measurement_setup: S. cerevisiae bub3 mutant strain, at 50.0 µM, active compounds read high
This is part of a sample that, as a whole, favours compounds with a hit. Of some 79,000 tested, about 15% had one in any assay.
assay_metric: growth inhibition (%)
All answers are understood in %, so give the number only.

// known answers, use as guide
{"compound": "O=C(O)C1CC1Br (stereo not given)", "assay_metric": "growth inhibition", "result_value": 2.45}
{"compound": "Cn1c2c(c3ccccc31)C(=O)CC2(C)C", "assay_metric": "growth inhibition", "result_value": -30.6}
{"compound": "CN(C)CCCC(O)c1cccc2ccccc12 (stereo not given)", "assay_metric": "growth inhibition", "result_value": 0.8}
{"compound": "Cc1ccc(/C(O)=C/c2nc3ccccc3oc2=O)cc1", "assay_metric": "growth inhibition", "result_value": 25.9}
{"compound": "Cc1ccc2c(N(C)C)cc(N(C)C)nc2c1C", "assay_metric": "growth inhibition", "result_value": -1.1}

Which growth inhibition value is on record for `CCCN(CCC)CCCCCCCCN` ? -7.9
